test system: J774.A1; test: Cytotoxicity against mouse […] cells at 0.5 ug/mL by MTT assay; format: cell-based
Item-by-item account of Activity
Write the value in % as a bare number.

In the examples that follow, each entry is paired with its recorded Activity.
* CCCCCCCCCCCCNCCO | 21.3
* CCCCCCCCCCCCCCCCN(CCO)C[C@H]1O[C@@H]2OC(C)(C)O[C@@H]2[C@H]2OC(C)(C)O[C@H]21 | 17.4

Request the reported Activity associated with CCCCCCCCCCC(O)CN (stereo not given) 31.1

* * *

Recorded measurements of viability at 0.5 ug/mL, one per entry
assay: Cell proliferation of mouse […] cells at 0.5 ug/mL by MTT assay; assay type: ADME, cell-based, J774.A1; settings: J774A.1 cells, read-out: Activity
Provide only the numeric value, understood in %.

A selection of reference data follows.
* CCCCCCCCCCCCCCN(CCO)C[C@H]1O[C@@H]2OC(C)(C)O[C@@H]2[C@H]2OC(C)(C)O[C@H]21 | 118
* CCCCCCCCCCCCNCCO | 90.9

Entry CCCCCCCCCCCCN(CCO)C[C@H]1O[C@@H]2OC(C)(C)O[C@@H]2[C@H]2OC(C)(C)O[C@H]21 has what viability at 0.5 ug/mL? 96.6

Look at this molecule and give its reported viability at 0.5 ug/mL. CCCCCCCCCCC(O)CN (stereo not given) 96.4

State the recorded viability at 0.5 ug/mL for this entry: CCCCCCCCCCCCCCCCN(CCO)C[C@H]1O[C@@H]2OC(C)(C)O[C@@H]2[C@H]2OC(C)(C)O[C@H]21 149

* * *

test system: J774.A1; experiment: Cytotoxicity against mouse […] cells at 0.005 ug/mL by MTT assay; assay type: cell-based
readout_label: Activity

- CCCCCCCCCCCCCCN(CCO)C[C@H]1O[C@@H]2OC(C)(C)O[C@@H]2[C@H]2OC(C)(C)O[C@H]21: Not Active
- CCCCCCCCCCC(O)CN (stereo not drawn): Not Active
- CCCCCCCCCCCCN(CCO)C[C@H]1O[C@@H]2OC(C)(C)O[C@@H]2[C@H]2OC(C)(C)O[C@H]21: Not Active

* * *

system: J774.A1; assay: Cytotoxicity against mouse […] cells at 0.05 ug/mL by MTT assay; assay type: cell-based
readout_label: Activity

- CCCCCCCCCCCCCCN(CCO)C[C@H]1O[C@@H]2OC(C)(C)O[C@@H]2[C@H]2OC(C)(C)O[C@H]21: Not Active
- CCCCCCCCCCCCN(CCO)C[C@H]1O[C@@H]2OC(C)(C)O[C@@H]2[C@H]2OC(C)(C)O[C@H]21: Not Active
- CCCCCCCCCCC(O)CN (stereo not drawn): Not Active

* * *

system: Mycobacterium tuberculosis; test: Antimycobacterial activity against Mycobacterium tuberculosis H37Rv by microplate alamar blue assay; format: functional
readout_label: MIC (µM)
Answer in µM, number only, no unit symbol.

Sample records with MIC:
• CCCCCCCCCCC(O)CN (stereo not drawn) = 15
• CCCCCCCCCCC(O)CNC[C@H]1O[C@@H]2OC(C)(C)O[C@@H]2[C@H]2OC(C)(C)O[C@H]21 (stereo partly drawn) = 28

Field request: MIC | item: CCCCCCCCCCCCCCN(CCO)C[C@H]1O[C@@H]2OC(C)(C)O[C@@H]2[C@H]2OC(C)(C)O[C@H]21 12

Which MIC value is on record for CCCCCCCCCCCCN(CCO)C[C@H]1O[C@@H]2OC(C)(C)O[C@@H]2[C@H]2OC(C)(C)O[C@H]21 ? 6

Using the record for CCCCCCCCNCCO , report its MIC. 578

Query (compound): CCCCCCCCCCN(CCO)C[C@H]1O[C@@H]2OC(C)(C)O[C@@H]2[C@H]2OC(C)(C)O[C@H]21 ; field requested: MIC 225

Dear colleague, I am looking for the recorded MIC of the following compound: CCCCCCCCCCCCCCCCN(CCO)C[C@H]1O[C@@H]2OC(C)(C)O[C@@H]2[C@H]2OC(C)(C)O[C@H]21 11

// query MIC value for entry CCCCCCCCCCCCCCCCNCCO 46

Values were extracted from ChEMBL document CHEMBL1140478.
